Molecular target: PARK7 (Homo sapiens, UniProt Q99497)
Test: High-throughput screen of the crude compound library, PARK7 fluorescence polarization (FP) assay with FP reagent JYQ-107
Type: biochemical
Conditions: 1.25 µM, crude compound library, FP reagent JYQ-107; read-out: HTS FP assay %Inhibition (1.25 µM)
measuredMetric: inhibition at 1.25 µM (%)

Q: Supply inhibition at 1.25 µM value. Item: N#CN1CC[C@@H](C(=O)Nc2nc3c(s2)CN(C(=O)C2CC(=O)NC(=O)N2)CC3)C1 (stereo partly shown)
A: 60.1

Q: Give a short answer stating reported inhibition at 1.25 µM for CC(C)(C)OC(=O)Nc1ccccc1C(=O)N1CCc2nc(NC(=O)[C@@H]3CCN(C#N)C3)sc2C1 .
A: 65.2

Q: Provide inhibition at 1.25 µM value for the following compound: N#CN1CC[C@@H](C(=O)Nc2nc3c(s2)CN(C(=O)c2ccc(N4CCOCC4)cc2)CC3)C1
A: 72.4

Q: Specify measured inhibition at 1.25 µM for CC(C)n1nccc1[C@@H]1OCC[C@H]1C(=O)N1CCc2nc(NC(=O)[C@@H]3CCN(C#N)C3)sc2C1 .
A: 65

###

Molecular target: UniProtKB Q99497
Assay: High-throughput screen of the crude compound library, PARK7 fluorescence polarization (FP) assay with FP reagent JYQ-107
Type: biochemical
Conditions: 1.25 µM, crude compound library, FP reagent JYQ-107; read-out: HTS FP assay %Inhibition (1.25 µM)
measuredMetric: inhibition at 1.25 µM (%)

// known answers, use as guide
Q: Retrieve inhibition at 1.25 µM on UniProtKB Q99497; query COC1CC(C(=O)N2CCc3nc(NC(=O)[C@@H]4CCN(C#N)C4)sc3C2)N(C(=O)OCc2ccccc2)C1 (stereo partly drawn) [compound 382]
A: 75.9

Q: Recall the reported inhibition at 1.25 µM of N#CN1CC[C@@H](C(=O)Nc2nc3c(s2)CN(C(=O)CCCCBr)CC3)C1 [compound 410] on UniProtKB Q99497 and write it down.
A: 47.7

Q: # lookup: UniProtKB Q99497 inhibition at 1.25 µM, key = N#CN1CC[C@@H](C(=O)Nc2nc3c(s2)CN(C(=O)c2sccc2Br)CC3)C1 [compound 421]
A: 79.7

Q: Would you please give the reported inhibition at 1.25 µM of CCCN(CCC)S(=O)(=O)c1ccc(C(=O)N2CCc3nc(NC(=O)[C@@H]4CCN(C#N)C4)sc3C2)cc1 [compound 428] with UniProtKB Q99497?
A: 85.1

Q: Find the measured inhibition at 1.25 µM of N#CN1CC[C@@H](C(=O)Nc2nc3c(s2)CN(C(=O)c2cccnc2Oc2ccc(Cl)cc2Cl)CC3)C1 [Compound 345] with UniProtKB Q99497 as test system.
A: 92.1

A. CC(=O)CCC(=O)N1CCc2nc(NC(=O)[C@@H]3CCN(C#N)C3)sc2C1 [compound 443]
B. N#CN1CC[C@@H](C(=O)Nc2nc3c(s2)CN(C(=O)C(Br)c2ccccc2)CC3)C1 (stereo partly drawn) [compound 411]
Q: Rank A against B by their inhibition at 1.25 µM values and give the higher one. Could you answer with the label of the item you picked?
A: A

###

Biological target: PARK7 (Homo sapiens, UniProt Q99497)
Sequence (Q99497 1-189): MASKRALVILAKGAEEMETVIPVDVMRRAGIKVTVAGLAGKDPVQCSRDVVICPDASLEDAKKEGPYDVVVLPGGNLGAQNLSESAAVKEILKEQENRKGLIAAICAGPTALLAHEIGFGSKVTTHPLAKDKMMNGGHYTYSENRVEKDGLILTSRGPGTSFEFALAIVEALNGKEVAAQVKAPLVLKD
Experiment: Probe labeling of purified recombinant PARK7
Details: 1 μM PARK7, 1 h, 37 °C
measuredMetric: probe concentration giving complete labeling of recombinant PARK7 (Coomassie band shift) (µM)

Q: Provide measured probe concentration giving complete labeling of recombinant PARK7 (Coomassie band shift) value, entry: CC[N+]1=C(/C=C/C=C/C=C2/N(CCCCCC(=O)NCCCc3cn(CC(=O)N4CCN(S(=O)(=O)c5cccc(C(=O)N6CCc7nc(NC(=O)[C@@H]8CCN(C#N)C8)sc7C6)c5)CC4)nn3)c3ccc(S(=O)(=O)[O-])cc3C2(C)C)C(C)(C)c2cc(S(=O)(=O)O)ccc21 [JYQ-192]
A: 2

Q: Please supply the value of reported probe concentration giving complete labeling of recombinant PARK7 (Coomassie band shift) for the item CC1=CC(C)=[N+]2C1=C(CCCCc1cn(-c3ccc(F)c(C(=O)N4CCc5nc(NC(=O)[C@@H]6CCN(C#N)C6)sc5C4)c3)nn1)c1c(C)cc(C)n1[B-]2(F)F [JYQ-196]
A: 2

P. CC[N+]1=C(/C=C/C=C/C=C2/N(CCCCCC(=O)NCCCc3cn(-c4ccc(F)c(C(=O)N5CCc6nc(NC(=O)[C@@H]7CCN(C#N)C7)sc6C5)c4)nn3)c3ccc(S(=O)(=O)O)cc3C2(C)C)C(C)(C)c2cc(S(=O)(=O)[O-])ccc21 [JYQ-197]
Q. CC1=CC(C)=[N+]2C1=C(CCCCc1cn(CC(=O)N3CCN(S(=O)(=O)c4cccc(C(=O)N5CCc6nc(NC(=O)[C@@H]7CCN(C#N)C7)sc6C5)c4)CC3)nn1)c1c(C)cc(C)n1[B-]2(F)F [JYQ-191]
Q: Just tell me: smaller probe concentration giving complete labeling of recombinant PARK7 (Coomassie band shift) value, P or Q ? Reply with the label of the item you choose.
A: P

Reference source: paper PMC11129182
